tested on: P12-Ichikawa; test: cell viability relative to DMSO control; higher = less cytotoxic; conditions: RPMI 5 mM glucose + 10% dialyzed FBS; 48 h; 5.12 µM
Lab note: compare cell viability with 90%, writing class 1 if less and class 0 if equal or more.

NC(=O)NO: class 1
N#C/N=C(\NCCCCCCOc1ccc(Cl)cc1)Nc1ccncc1: class 1
N[S+](=O)([O-])OC[C@@H]1C[C@@H](n2ccc3c(N[C@H]4CCc5ccccc54)ncnc32)C[C@@H]1O: class 1

INPUT: # TODO verify cell viability < 90% strictly for this compound: CN1CCN(C(=O)O[C@H]2c3nccnc3C(=O)N2c2ccc(Cl)cn2)CC1
OUTPUT: class 0

INPUT: Does this compound meet the criterion cell viability < 90%? CC(C)OC1=CC=C2C(=C1)O\C=C(/C2=O)C3=CC=CC=C3
OUTPUT: class 0
